Reference source for all entries: BigSolDB 2.1

conditions: in DMSO, 323.15 K
experimental-endpoint: solubility (mole fraction)

chemical-structure | experimental-endpoint | assay-result
NC(=O)N/N=C/c1ccc([N+](=O)[O-])o1 | solubility (mole fraction) | 0.0709

---

details: in isopropanol, 323.15 K

chemical-structure | solubility (mole fraction)
NC(=O)N/N=C/c1ccc([N+](=O)[O-])o1 | 0.000484

---

settings: in DMSO, 293.15 K
experimental-endpoint: solubility (mole fraction)

chemical-structure | assay-result
NC(=O)N/N=C/c1ccc([N+](=O)[O-])o1 | 0.0448

---

details: in NMP, 323.15 K

chemical-structure | solubility (mole fraction)
NC(=O)N/N=C/c1ccc([N+](=O)[O-])o1 | 0.0985

---

conditions: in DMSO, 303.15 K
experimental-endpoint: solubility (mole fraction)

chemical-structure | assay-result
NC(=O)N/N=C/c1ccc([N+](=O)[O-])o1 | 0.0493

---

conditions: in DMSO, 318.15 K
experimental-endpoint: solubility (mole fraction)

chemical-structure | assay-result
NC(=O)N/N=C/c1ccc([N+](=O)[O-])o1 | 0.0636

---

settings: in NMP, 308.15 K
experimental-endpoint: solubility (mole fraction)

chemical-structure | assay-result
NC(=O)N/N=C/c1ccc([N+](=O)[O-])o1 | 0.0662

---

conditions: in water, 323.15 K

chemical-structure | solubility (mole fraction)
NC(=O)N/N=C/c1ccc([N+](=O)[O-])o1 | 8.47e-05

---

conditions: in NMP, 303.15 K
experimental-endpoint: solubility (mole fraction)

chemical-structure | assay-result
NC(=O)N/N=C/c1ccc([N+](=O)[O-])o1 | 0.0591

---

conditions: in water, 283.15 K

chemical-structure | solubility (mole fraction)
NC(=O)N/N=C/c1ccc([N+](=O)[O-])o1 | 1.66e-05

---

conditions: in water, 318.15 K

chemical-structure | solubility (mole fraction)
NC(=O)N/N=C/c1ccc([N+](=O)[O-])o1 | 6.84e-05

---

conditions: in water, 288.15 K
experimental-endpoint: solubility (mole fraction)

chemical-structure | assay-result
NC(=O)N/N=C/c1ccc([N+](=O)[O-])o1 | 1.96e-05

---

settings: in DMSO, 308.15 K

chemical-structure | solubility (mole fraction)
NC(=O)N/N=C/c1ccc([N+](=O)[O-])o1 | 0.053

---

conditions: in DMSO, 298.15 K

chemical-structure | solubility (mole fraction)
NC(=O)N/N=C/c1ccc([N+](=O)[O-])o1 | 0.0469

---

settings: in NMP, 313.15 K

chemical-structure | solubility (mole fraction)
NC(=O)N/N=C/c1ccc([N+](=O)[O-])o1 | 0.075

---

details: in ethanol, 288.15 K

chemical-structure | solubility (mole fraction)
NC(=O)N/N=C/c1ccc([N+](=O)[O-])o1 | 0.000102

---

settings: in isopropanol, 318.15 K
experimental-endpoint: solubility (mole fraction)

chemical-structure | assay-result
NC(=O)N/N=C/c1ccc([N+](=O)[O-])o1 | 0.00039

---

details: in isopropanol, 298.15 K

chemical-structure | solubility (mole fraction)
NC(=O)N/N=C/c1ccc([N+](=O)[O-])o1 | 0.000175

---

settings: in water, 293.15 K
experimental-endpoint: solubility (mole fraction)

chemical-structure | experimental-endpoint | assay-result
NC(=O)N/N=C/c1ccc([N+](=O)[O-])o1 | solubility (mole fraction) | 2.46e-05
